Target: human Kv1.5 channels (Homo sapiens, UniProt P22460)
Construct: Full-length human Kv1.5 cDNA was cloned from a human heart cDNA library
Sequence (P22460 whole entry): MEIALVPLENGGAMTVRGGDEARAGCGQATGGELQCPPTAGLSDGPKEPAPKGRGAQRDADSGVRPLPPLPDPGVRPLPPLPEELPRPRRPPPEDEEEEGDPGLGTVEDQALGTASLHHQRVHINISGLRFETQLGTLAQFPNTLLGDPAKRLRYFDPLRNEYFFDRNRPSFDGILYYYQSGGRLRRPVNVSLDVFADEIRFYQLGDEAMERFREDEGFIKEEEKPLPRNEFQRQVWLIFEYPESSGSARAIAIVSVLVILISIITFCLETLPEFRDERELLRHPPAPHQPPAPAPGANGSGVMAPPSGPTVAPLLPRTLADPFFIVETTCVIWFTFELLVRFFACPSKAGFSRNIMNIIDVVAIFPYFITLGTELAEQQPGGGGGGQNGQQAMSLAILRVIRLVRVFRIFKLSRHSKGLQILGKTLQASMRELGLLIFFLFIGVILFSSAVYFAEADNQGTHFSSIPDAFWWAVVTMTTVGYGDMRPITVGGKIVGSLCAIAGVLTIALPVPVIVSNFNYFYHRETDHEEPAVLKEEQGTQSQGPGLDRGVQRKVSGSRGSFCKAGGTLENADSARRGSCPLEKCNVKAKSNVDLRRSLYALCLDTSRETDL
Assay: Measurement of human Kv1.5 channel current by whole-cell patch clamp method (human Kv1.5-expressing CHO-K1 cell line)
Conditions: human Kv1.5-expressing CHO-K1 cells, step end current at +40 mV, test compound 0.1, 1, 10 μM
Structures can show the parent of a compound that is named as a salt.
readout: IC50 (nM)
Give the value in nM but do not write nM after it.

// solved cases for IC50 follow
compound | unit string | IC50
CN(CCN(CCCOc1ccc2c(c1)N(C)C(=O)C(C)(C)C(=O)N2C)Cc1ccncc1)C(=O)c1ccccc1 [Example 45, dihydrochloride] | nM | 690
CCN1C(=O)C(C)(C)C(=O)N(C)c2cc(OCCCN(CCn3ccc4ccccc4c3=O)Cc3ccncc3)ccc21 [Example 23, dihydrochloride] | nM | 180
CCN1C(=O)C(C)(C)C(=O)N(C)c2cc(OCCCN(CCn3ccc4ccccc4c3=O)Cc3ccsc3)ccc21 [Example 125] | nM | 190

// below: IC50 requested for another compound
For this compound ( CCN1C(=O)C(C)(C)C(=O)N(CC)c2cc(OCCCN(CCc3cccnc3)Cc3ccncc3)ccc21 [Example 14, trihydrochloride] ), measured IC50 is 580
